A compilation of pIC50 values for UniProtKB Q9Y5Y4 from the published literature.
Answer as the number alone; pIC50 is minus log10 of concentration in mol/L.

*Q* State the measured pIC50 (UniProtKB Q9Y5Y4) of `CCCCC(=O)N(Cc1cccc(OC)c1)c1cccc(-c2nnn[nH]2)c1`
*A* 7.28

*Q* State the measured pIC50 (UniProtKB Q9Y5Y4) of COc1ccc(CC(=O)O)cc1-c1ccc(F)c2c1CN(C(=O)CC1CCOc3ccc(F)cc31)CC2 (racemic)
*A* 6.80

*Q* State the measured pIC50 (UniProtKB Q9Y5Y4) of `CCC(=O)N(Cc1ccc(-c2ccccc2Cl)cc1)c1cc(F)cc(-c2nnn[nH]2)c1`
*A* 7.51

*Q* State the measured pIC50 (UniProtKB Q9Y5Y4) of `CN(CCc1cn(CC(=O)O)c2ccc(F)cc12)S(=O)(=O)c1ccc(F)cc1`
*A* 7.72
